PROCEDURE_TEXT: Inhibition of alpha glucosidase (unknown origin) preincubated for 15 mins followed by p-nitrophenyl-alpha-D-glucopyranoside addition measured after 30 mins by spectrophotometric analysis
Set-up: species or system Homo sapiens
IC50 overview
Give the value, in units of µM, as a plain number.

CCOC(=O)C(COC(=O)/C=C/c1ccc(OC)c(OC)c1)c1ccc(F)cc1 (stereo not drawn)
83.8

GET /values?readout=IC50&item= COC(=O)C(/C=N/NC(N)=S)c1ccc(C)cc1 (stereo not drawn)
190

GET /values?readout=IC50&item= `OC[C@H]1NC[C@H](O)[C@@H](O)[C@@H]1O`
109

GET /values?readout=IC50&item= CCOC(=O)C(/C=N/NC(N)=S)c1ccc(F)cc1 (stereo not drawn)
46.8

* * *

Test system: NCI-H1650
PROCEDURE_TEXT: Cytotoxicity against human NCI-H1650 cells after 72 hrs by MTT assay
Type: functional, cell-based
TEST_CONDITIONS: NCI-H1650, 72 h
MEASUREMENT_TYPE: IC50

# annotated cases, reported IC50 shown
COC(=O)C(CO)c1ccccc1 (stereo unspecified)
> 0.01 µg/mL
COC(=O)C(COC(=O)/C=C/c1ccc(OC)c(OC)c1)c1ccccc1 (stereo unspecified)
> 0.01 µg/mL
CCOC(=O)C(COC(=O)c1ccccc1)c1ccc(F)cc1 (stereo unspecified)
> 0.01 µg/mL

Given the entry COC(=O)C(C=O)c1ccc(C)cc1 (stereo unspecified) , what IC50 was observed with NCI-H1650?
> 0.01 µg/mL

Given the entry CCOC(=O)C(COC(=O)c1ccccc1OC(C)=O)c1ccc(F)cc1 (stereo unspecified) , what IC50 was observed with NCI-H1650?
> 0.01 µg/mL

Given the entry CCOC(=O)C(COC(=O)c1ccccc1OC(C)=O)c1ccc(C(F)(F)F)cc1 (stereo unspecified) , what IC50 was observed with NCI-H1650?
> 0.01 µg/mL

Given the entry CCOC(=O)C(/C=N/NC(N)=S)c1ccc(F)cc1 (stereo unspecified) , what IC50 was observed with NCI-H1650?
0.00198 µg/mL

Given the entry CCOC(=O)C(/C=N/OC)c1ccc(C(F)(F)F)cc1 (stereo unspecified) , what IC50 was observed with NCI-H1650?
> 0.01 µg/mL

Given the entry COC(=O)C(/C=N/NC(N)=S)c1ccc(C)cc1 (stereo unspecified) , what IC50 was observed with NCI-H1650?
0.00534 µg/mL

Given the entry COC(=O)C(C=O)c1ccccc1 (stereo unspecified) , what IC50 was observed with NCI-H1650?
> 0.01 µg/mL

Given the entry CCOC(=O)C(/C=N/OC)c1ccc(F)cc1 (stereo unspecified) , what IC50 was observed with NCI-H1650?
> 0.01 µg/mL

Given the entry COC(=O)C(CO)c1ccc(C)cc1 (stereo unspecified) , what IC50 was observed with NCI-H1650?
> 0.01 µg/mL

Given the entry CCOC(=O)C(COC(=O)/C=C/c1ccc(OC)c(OC)c1)c1ccc(F)cc1 (stereo unspecified) , what IC50 was observed with NCI-H1650?
> 0.01 µg/mL

Given the entry COC(=O)C(COC(=O)c1ccccc1OC(C)=O)c1ccccc1 (stereo unspecified) , what IC50 was observed with NCI-H1650?
> 0.01 µg/mL

Given the entry COC(=O)C(CO)c1ccc(OC)cc1 (stereo unspecified) , what IC50 was observed with NCI-H1650?
> 0.01 µg/mL

Given the entry CCOC(=O)C(COC(=O)c1ccccc1)c1ccc(C(F)(F)F)cc1 (stereo unspecified) , what IC50 was observed with NCI-H1650?
> 0.01 µg/mL

Given the entry COC(=O)C(C=O)c1ccc(OC)cc1 (stereo unspecified) , what IC50 was observed with NCI-H1650?
> 0.01 µg/mL

Given the entry CCOC(=O)C(CO)c1ccc(C(F)(F)F)cc1 (stereo unspecified) , what IC50 was observed with NCI-H1650?
> 0.01 µg/mL

Given the entry COC(=O)C(/C=N/NC(N)=S)c1ccccc1 (stereo unspecified) , what IC50 was observed with NCI-H1650?
0.00325 µg/mL

Given the entry CCOC(=O)C(COC(=O)/C=C/c1ccc(OC)c(OC)c1)c1ccc(C(F)(F)F)cc1 (stereo unspecified) , what IC50 was observed with NCI-H1650?
> 0.01 µg/mL

Given the entry COC(=O)C(/C=N/NC(N)=S)c1ccc(OC)cc1 (stereo unspecified) , what IC50 was observed with NCI-H1650?
0.0025 µg/mL

All values here come from ChEMBL document CHEMBL3784939.
